experiment: NCI Yeast Anticancer Drug Screen. Data for the cln2 rad14 strain (AID 165);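 note: 0% = growth equal to vehicle treated cultures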; details: S. cerevisiae cln2 rad14 strain, at 50.0 µM (retest, dose inferred, filed as 5.0), active compounds read high
This is part of a sample that, as a whole, favours compounds with a hit. Of some 79,000 tested, about 15% had one in any assay.
Measured growth inhibition, listed per entry for reference.

>  <compound>
ONC1=Nc2ccccc2OCc2cc(Br)c(Br)cc2COc2ccccc2N=C1NO

>  <growth inhibition [%]>
81

$$$$
>  <compound>
CC(C)(C)C1CCC(SCCO)CC1 (configuration not stated)

>  <growth inhibition [%]>
97

$$$$
>  <compound>
COc1cc2c(cc1O)CCCCC2

>  <growth inhibition [%]>
-7

$$$$
>  <compound>
Cc1ccc2c(c1)CSCCO2

>  <growth inhibition [%]>
100

$$$$
>  <compound>
Cc1cc(SCC(=O)c2ccc(Br)cc2)cc(C)[o+]1

>  <growth inhibition [%]>
75

$$$$
>  <compound>
Cc1ccc2nc(C[n+]3cccc4ccccc43)ccc2c1

>  <growth inhibition [%]>
98

$$$$
>  <compound>
NS(=O)(=O)c1ccc(N=Cc2c3ccccc3nc3cc(Cl)ccc23)cc1

>  <growth inhibition [%]>
12

$$$$

Attribution: PubChem BioAssay (NCI)
